Target: human CB1 receptor (Homo sapiens)
Construct: host or cells: CHO-RD-HGA16 cells (CHO cells overexpressing promiscuous Galpha16)
Assay Name: CB1 calcium mobilization assay, agonist screen
Format: cell-based
Reported Conditions: Table 1; 10,000 nM final concentration; mean ± SD
Endpoint Label: CB1 calcium assay Agonist screen (% CP55, 940 Emax)

Worked cases, answers included:
**Q:** Using known records, supply CB1 calcium assay Agonist screen (% CP55, 940 Emax) for O=C(Nc1ccc(Cl)cc1)Nc1cccc(-c2cccc(O)c2)c1
**A:** 9.8 ± 1.6 % CP55, 940 Emax

**Q:** Using known records, supply CB1 calcium assay Agonist screen (% CP55, 940 Emax) for O=C(Nc1ccc(Cl)cc1)Nc1cccc(-c2ccncc2)c1
**A:** 14.5 ± 2.5 % CP55, 940 Emax

**Q:** Using known records, supply CB1 calcium assay Agonist screen (% CP55, 940 Emax) for COc1cccc(-c2cccc(NC(=O)Nc3ccc(Cl)cc3)c2)c1
**A:** 12.5 ± 1.9 % CP55, 940 Emax

**Q:** Using known records, supply CB1 calcium assay Agonist screen (% CP55, 940 Emax) for O=C(Nc1ccc(Cl)cc1)Nc1cccc(N2CC3(COC3)C2)c1
**A:** 28.8 ± 0.2 % CP55, 940 Emax

Attention now turns to another entry.
**Q:** Using known records, supply CB1 calcium assay Agonist screen (% CP55, 940 Emax) for O=C(Nc1ccc(Cl)cc1)Nc1cccc(-c2ncc[nH]2)c1
**A:** 4.3 ± 0.5 % CP55, 940 Emax

###

Target: human CB1 receptor (Homo sapiens)
Construct: host or cells: CHO-RD-HGA16 cells (CHO cells overexpressing promiscuous Galpha16)
Assay Name: CB1 calcium mobilization assay, agonist screen
Assay type: cell-based
Reported Conditions: Table 1; 10,000 nM final concentration; mean ± SD
Endpoint Label: CB1 calcium assay Agonist screen (% CP55, 940 Emax)

Worked cases, answers included:
**Q:** Using known records, supply CB1 calcium assay Agonist screen (% CP55, 940 Emax) for O=C(Nc1ccc(Cl)cc1)Nc1cccc(OC2CCCC2)c1 [Compound 95]
**A:** 11.7 ± 1.4 % CP55, 940 Emax

**Q:** Using known records, supply CB1 calcium assay Agonist screen (% CP55, 940 Emax) for O=C(Nc1ccc(Cl)cc1)Nc1cccc(-c2nccs2)c1 [Compound 53]
**A:** 20.1 ± 1.1 % CP55, 940 Emax

**Q:** Using known records, supply CB1 calcium assay Agonist screen (% CP55, 940 Emax) for O=C(Nc1ccc(Cl)cc1)Nc1cccc(-c2cccs2)c1 [Compound 48]
**A:** 12.8 ± 1.8 % CP55, 940 Emax

**Q:** Using known records, supply CB1 calcium assay Agonist screen (% CP55, 940 Emax) for O=C(Nc1ccc(Cl)cc1)Nc1cccc(-c2ccc3ccccc3c2)c1 [Compound 42]
**A:** 6.9 ± 0.5 % CP55, 940 Emax

**Q:** Using known records, supply CB1 calcium assay Agonist screen (% CP55, 940 Emax) for O=C(Nc1ccc(Cl)cc1)Nc1cccc(-c2cnc3ccccc3c2)c1 [Compound 44]
**A:** 2.6 ± 1.2 % CP55, 940 Emax

---
**Q:** Using known records, supply CB1 calcium assay Agonist screen (% CP55, 940 Emax) for O=C(Nc1ccc(Cl)cc1)Nc1cccc(CN2CCCC2)c1 [Compound 90]
**A:** 27.5 ± 4.5 % CP55, 940 Emax

**Q:** Using known records, supply CB1 calcium assay Agonist screen (% CP55, 940 Emax) for O=C(Nc1ccc(Cl)cc1)Nc1cccc(-c2ccccc2)c1 [Compound 22]
**A:** 5.1 ± 0.8 % CP55, 940 Emax

**Q:** Using known records, supply CB1 calcium assay Agonist screen (% CP55, 940 Emax) for COc1cc(-c2cccc(NC(=O)Nc3ccc(Cl)cc3)c2)ccn1 [Compound 17]
**A:** 23.4 ± 1.9 % CP55, 940 Emax

**Q:** Using known records, supply CB1 calcium assay Agonist screen (% CP55, 940 Emax) for Cc1ccnc(-c2cccc(NC(=O)Nc3ccc(Cl)cc3)c2)c1 [Compound 16]
**A:** 2.9 ± 0.1 % CP55, 940 Emax

###

Target: human CB1 receptor (Homo sapiens, UniProt P21554)
Construct: host or cells: CHO-RD-HGA16 cells (CHO cells overexpressing promiscuous Galpha16)
Sequence (P21554 whole entry): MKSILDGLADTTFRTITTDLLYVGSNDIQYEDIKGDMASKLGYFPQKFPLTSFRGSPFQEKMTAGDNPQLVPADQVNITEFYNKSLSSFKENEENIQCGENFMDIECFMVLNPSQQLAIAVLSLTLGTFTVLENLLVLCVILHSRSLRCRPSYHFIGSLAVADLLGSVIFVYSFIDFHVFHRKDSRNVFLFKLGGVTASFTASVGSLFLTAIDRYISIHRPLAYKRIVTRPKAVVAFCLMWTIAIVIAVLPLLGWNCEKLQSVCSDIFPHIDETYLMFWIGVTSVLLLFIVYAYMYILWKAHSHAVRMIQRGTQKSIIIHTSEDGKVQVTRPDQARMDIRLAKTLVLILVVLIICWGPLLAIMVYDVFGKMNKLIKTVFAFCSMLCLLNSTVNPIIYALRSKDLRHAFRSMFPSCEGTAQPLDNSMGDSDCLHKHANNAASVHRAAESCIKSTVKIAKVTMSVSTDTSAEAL
Assay Name: CB1 calcium mobilization assay (antagonist mode, against EC80 of CP55,940)
Assay type: cell-based
Reported Conditions: Table 1; against EC80 (100 nM) of CP55,940; mean ± S.E.M.; read-out: CB1 calcium assay IC50
Endpoint Label: IC50 (nM)

Worked cases, answers included:
**Q:** Using known records, supply IC50 for O=C(Nc1ccc(Cl)cc1)Nc1cccc(-c2cscn2)c1 [Compound 52]
**A:** 84

**Q:** Using known records, supply IC50 for Cc1cc(-c2cccc(NC(=O)Nc3ccc(Cl)cc3)c2)cs1 [Compound 49]
**A:** 40

**Q:** Using known records, supply IC50 for O=C(Nc1ccc(Cl)cc1)Nc1cccc(-c2ccc3occc3c2)c1 [Compound 41]
**A:** 134

**Q:** Using known records, supply IC50 for O=C(Nc1ccc(Cl)cc1)Nc1cccc(-c2cccc(-c3ccccc3)c2)c1 [Compound 38]
**A:** 195

P = Cc1ccccc1-c1cccc(NC(=O)Nc2ccc(Cl)cc2)c1 [Compound 28]
Q = CC(C)(C)c1ccc(-c2cccc(NC(=O)Nc3ccc(Cl)cc3)c2)cc1 [Compound 36]
**Q:** I'm curious, which of these has a smaller IC50 number: P or Q ? Give the label of your selection.
**A:** P

###

Target: human CB1 receptor (Homo sapiens)
Construct: host or cells: CHO-RD-HGA16 cells (CHO cells overexpressing promiscuous Galpha16)
Assay Name: CB1 calcium mobilization assay (antagonist mode, against EC80 of CP55,940)
Type: cell-based
Reported Conditions: Table 1; against EC80 (100 nM) of CP55,940; mean ± S.E.M.; read-out: CB1 calcium assay IC50
pIC50: −log10 of the molar value.
Endpoint Label: pIC50

Worked cases, answers included:
**Q:** Using known records, supply pIC50 for O=C(Nc1ccc(Cl)cc1)Nc1cccc(-c2cccnc2)c1
**A:** 6.61

**Q:** Using known records, supply pIC50 for CCN(CC)c1cccc(NC(=O)Nc2ccc(Cl)cc2)c1
**A:** 6.53

**Q:** Using known records, supply pIC50 for COc1cccc(-c2cccc(NC(=O)Nc3ccc(Cl)cc3)c2)n1
**A:** 6.64

**Q:** Using known records, supply pIC50 for O=C(Nc1ccc(Cl)cc1)Nc1cccc(-c2ccc(F)cc2)c1
**A:** 7.64

**Q:** Using known records, supply pIC50 for O=C(Nc1ccc(Cl)cc1)Nc1cccc(-c2cccc([N+](=O)[O-])c2)c1
**A:** 7.57

I = COc1cc(-c2cccc(NC(=O)Nc3ccc(Cl)cc3)c2)ccn1
II = CN1CCN(c2cccc(NC(=O)Nc3ccc(Cl)cc3)c2)CC1
III = O=C(Nc1ccc(Cl)cc1)Nc1cccc(-c2ccc(F)cc2F)c1
**Q:** Kindly order the items shown according to pIC50, from the highest value down. Order the labels as requested and list them.
**A:** III, I, II

###

Target: human CB1 receptor (Homo sapiens, UniProt P21554)
Construct: host or cells: CHO-RD-HGA16 cells (CHO cells overexpressing promiscuous Galpha16)
Assay Name: CB1 calcium mobilization assay (antagonist mode, against EC80 of CP55,940)
Type: cell-based
Reported Conditions: Table 1; against EC80 (100 nM) of CP55,940; mean ± S.E.M.; read-out: CB1 calcium assay IC50
pIC50: −log10 of the molar value.
Endpoint Label: pIC50

Worked cases, answers included:
**Q:** Using known records, supply pIC50 for Cn1cccc1-c1cccc(NC(=O)Nc2ccc(Cl)cc2)c1
**A:** 6.78

**Q:** Using known records, supply pIC50 for O=C(Nc1ccc(Cl)cc1)Nc1cccc(N2CCCCC2)c1
**A:** 6.76

**Q:** Using known records, supply pIC50 for O=C(Nc1ccc(Cl)cc1)Nc1cccc(-c2cccs2)c1
**A:** 7.17

A = O=C(Nc1ccc(Cl)cc1)Nc1cccc(N2CCCCCC2)c1
B = O=C(Nc1ccc(Cl)cc1)Nc1cccc(-c2ccc(Cl)c(Cl)c2)c1
**Q:** Could you kindly indicate whether A or B has the higher pIC50 value? Give the label of your selection.
**A:** B

###

Target: CB1 receptor (Mus musculus, UniProt P47746)
Construct: from tissue; host or cells: cerebellar membranes of adult male CD-1 mice
Sequence (P47746 whole entry): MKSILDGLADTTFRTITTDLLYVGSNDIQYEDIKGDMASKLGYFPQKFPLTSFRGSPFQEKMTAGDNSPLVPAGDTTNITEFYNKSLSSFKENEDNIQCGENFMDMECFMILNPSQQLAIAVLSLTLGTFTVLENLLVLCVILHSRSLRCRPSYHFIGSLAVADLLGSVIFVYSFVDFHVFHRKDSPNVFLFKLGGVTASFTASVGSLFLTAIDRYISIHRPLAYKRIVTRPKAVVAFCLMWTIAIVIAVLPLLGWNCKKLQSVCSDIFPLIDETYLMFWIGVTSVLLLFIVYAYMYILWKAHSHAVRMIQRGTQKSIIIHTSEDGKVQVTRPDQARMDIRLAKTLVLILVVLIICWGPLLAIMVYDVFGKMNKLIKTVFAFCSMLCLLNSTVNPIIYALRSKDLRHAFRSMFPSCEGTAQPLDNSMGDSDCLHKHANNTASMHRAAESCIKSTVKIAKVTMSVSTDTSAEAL
Assay Name: [35S]GTP-γ-S binding assay in mouse cerebellar membranes, CP55,940-stimulated
Assay type: biochemical
Reported Conditions: CP55,940 (100 nM) stimulation, mean (95% confidence interval)
pIC50: −log10 of the molar value.
Endpoint Label: pIC50

Worked cases, answers included:
**Q:** Output reported pIC50 of the molecule O=C(Nc1ccc(Cl)cc1)Nc1cccc(-c2cccc(-c3ccccc3)c2)c1 [Compound 38] on CB1 receptor (Mus musculus, UniProt P47746).
**A:** 6.25

**Q:** Output reported pIC50 of the molecule O=C(Nc1ccc(Cl)cc1)Nc1cccc(-c2ccc3ccccc3n2)c1 [Compound 43] on CB1 receptor (Mus musculus, UniProt P47746).
**A:** 5.72

**Q:** Output reported pIC50 of the molecule O=C(Nc1ccc(Cl)cc1)Nc1cccc(-c2ccc(Cl)c(Cl)c2)c1 [Compound 32] on CB1 receptor (Mus musculus, UniProt P47746).
**A:** 6.33

I = O=C(Nc1ccc(Cl)cc1)Nc1cccc(-c2ccncc2)c1 [Compound 20]
II = O=C(Nc1ccc(Cl)cc1)Nc1cccc(-c2cscn2)c1 [Compound 52]
**Q:** I'm curious, which of these has a smaller pIC50 number: I or II ? Give the label of your selection.
**A:** I
(I: 6.39, II: 6.60)

// data source = patent US11084781B2
